# testedTarget: recombinant 17bHSD13 (N2-K300) (Homo sapiens (Human))
# experimentalProtocol: In Vitro 17bHSD13 Enzyme Assay
# cond: 80 nM 17bHSD13, 0.5 mM NAD, 20 μM Estradiol, 2.5 h; estradiol to estrone by LC-MS/MS
experimentalReadout: log10 IC50 (log10 of the value in nM)
Record value = log10 of IC50 given in nM.

Look over these answered cases.
| compound | number |
| --- | --- |
| CC(C)C1COCCN1C(=O)c1noc(-c2cc(F)c(F)c(O)c2F)n1 (centres unmarked) | 2.81 |
| N#Cc1c(C(=O)N2CC(F)(C3CC3)C2)noc1-c1cc(F)c(F)c(O)c1F | 2.58 |
| N#Cc1ccccc1N1CCN(C(=O)c2noc(-c3cc(F)c(F)c(O)c3F)n2)CC1 | 1.79 |
| N#Cc1ccc2c(c1)CN(C(=O)c1noc(-c3cc(F)c(F)c(O)c3F)c1C#N)CC2 | 2.20 |

The following compounds each have a reported value; give each one's log10 IC50.
1. C[C@@H]1CN(C(=O)c2noc(-c3c(F)c(O)c(F)c(F)c3Br)n2)C[C@H](C)O1
2. C[C@@H]1CN(C(=O)c2ccc(-c3cc(F)c(F)c(O)c3F)s2)C[C@H](C)O1

1. 1.62
2. 1.56

For each of the items listed, what is its log10 IC50?
1. COc1ccc(N2CCN(C(=O)c3noc(-c4cc(F)c(F)c(O)c4F)n3)CC2)cc1
2. O=C(c1noc(-c2cc(F)c(F)c(O)c2F)n1)N1CC[C@@H](Oc2ccccc2)C1

2.05
1.80

* * *

What IC50 was measured for each of the following?
# testedTarget: recombinant 17bHSD4 (M1-N311) (Homo sapiens (Human))
# Sequence (P51659 1-311): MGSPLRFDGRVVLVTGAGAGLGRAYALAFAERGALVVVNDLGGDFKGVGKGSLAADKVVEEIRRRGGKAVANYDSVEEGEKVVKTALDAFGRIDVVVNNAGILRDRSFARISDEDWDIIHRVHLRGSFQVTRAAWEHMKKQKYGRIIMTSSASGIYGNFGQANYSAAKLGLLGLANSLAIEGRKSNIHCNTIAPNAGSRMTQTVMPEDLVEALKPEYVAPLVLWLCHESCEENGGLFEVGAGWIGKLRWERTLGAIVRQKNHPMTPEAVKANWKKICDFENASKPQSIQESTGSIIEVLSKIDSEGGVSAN
# experimentalProtocol: In Vitro 17bHSD4 Enzyme Assay
# cond: 40 nM 17bHSD4, 0.125 mM NAD, 15 μM Estradiol, 1.5 h; NADH fluorescence; read-out: 17HSD17b4 Enzyme assay IC50
Answers are plain numbers, in µM.

Solved entries:
| compound | experimentalReadout | resultUnit | number |
| --- | --- | --- | --- |
| N#Cc1c(C(=O)N2CCN(c3ccccn3)CC2)noc1-c1cc(F)c(F)c(O)c1F | IC50 | µM | 37.7 |
| COc1ccc(OC2CCN(C(=O)c3noc(-c4cc(F)c(F)c(O)c4F)c3C#N)CC2)nc1 | IC50 | µM | 24.8 |

Return reported IC50 values for all items listed beneath this line.
1. O=C(c1noc(-c2cc(F)c(F)c(O)c2F)n1)N1CC(c2ccc(F)cc2)C1
2. N#Cc1c(C(=O)N2CCN(CCCOc3ccc(F)cc3)CC2)noc1-c1cc(F)c(F)c(O)c1F
3. N#Cc1c(C(=O)N2CCN(c3nc4ccccc4o3)CC2)noc1-c1cc(F)c(F)c(O)c1F

21.1
41.4
33.9

* * *

Please respond with reported pIC50 for every item in the list.
# testedTarget: over expressed HSD17β13 in HEK293S cells (Homo sapiens (Human), UniProt Q7Z5P4)
# Sequence (Q7Z5P4 20-300): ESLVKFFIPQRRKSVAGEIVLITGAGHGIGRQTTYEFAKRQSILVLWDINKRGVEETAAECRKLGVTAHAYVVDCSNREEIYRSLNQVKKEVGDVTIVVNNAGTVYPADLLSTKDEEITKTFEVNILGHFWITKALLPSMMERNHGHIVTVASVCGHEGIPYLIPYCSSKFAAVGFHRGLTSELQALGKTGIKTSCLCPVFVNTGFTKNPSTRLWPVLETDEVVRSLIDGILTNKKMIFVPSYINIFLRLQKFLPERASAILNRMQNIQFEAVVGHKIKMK
# experimentalProtocol: In Vitro 17bHSD13 Cell Assay
# Assay type: cell-based
# cond: HEK293S cells over expressing HSD17β13; estradiol to estrone conversion, 18 h, LC-MS/MS; read-out: 17bHSD1713 Cell assay IC50
# Procedure: In Vitro 17bHSD13 Cell Assay Inhibition of 17bHSD13 was measured in a cell-based assay with over expressed HSD17β13 in HEK293S cells, measuring estradiol to estrone conversion by LCMS/MS. Samples were analyzed using LC-MS/MS. SCIEX LC-MS/MS system: Sample was injected with CTC analytical injector, SHIMATZU LC pumps LC20 and analysed on the SCIEX API 5000 LCMSMS system with the following settings. […] Compound effect was calculated with the formula below; […]
Answers are plain numbers, as −log10 of the molar value.

Worked examples, 6 compounds total:
| compound | pIC50 |
| --- | --- |
| O=C(c1cc(-c2cc(F)c(F)c(O)c2F)on1)N1CC[C@H](c2ccc(Cl)cc2)C1 [Example 8] | 6.21 |
| O=C(c1noc(-c2cc(F)c(F)c(O)c2F)n1)N1CCOC2(CCCC2)C1 [Example 45] | 6.29 |
| N#Cc1ccc2c(c1)CN(C(=O)c1noc(-c3cc(F)c(F)c(O)c3F)n1)C2 [Example 106] | 5.91 |
| C[C@@H]1CN(C(=O)c2noc(-c3cc(F)c(F)c(O)c3F)n2)C[C@H](C)O1 [Example 87] | 7.22 |
| CC(C)c1noc(C2=CCN(C(=O)c3noc(-c4cc(F)c(F)c(O)c4F)n3)CC2)n1 [Example 107] | 6.43 |
| O=C(c1noc(-c2cc(F)c(F)c(O)c2F)n1)N1CC=C(c2ccccc2)CC1 [Example 62] | 6.02 |

Next item in the queue.
Given the entry O=C(c1noc(-c2cc(F)c(F)c(O)c2F)n1)N1CCN(CCCOc2ccc(F)cc2)CC1 [Example 57] , what pIC50 was observed with over expressed HSD17β13 in HEK293S cells (Homo sapiens (Human), UniProt Q7Z5P4)? 6.85

* * *

# testedTarget: recombinant 17bHSD4 (M1-N311) (Homo sapiens (Human))
# experimentalProtocol: In Vitro 17bHSD4 Enzyme Assay
# cond: 40 nM 17bHSD4, 0.125 mM NAD, 15 μM Estradiol, 1.5 h; NADH fluorescence; read-out: 17HSD17b4 Enzyme assay IC50
experimentalReadout: IC50 (µM)
Numbers only, in µM.

| compoundStructureString | number |
| --- | --- |
| C[C@@H]1CC[C@H](C)N1C(=O)c1noc(-c2cc(F)c(F)c(O)c2F)n1 | 24 |

Batch request: IC50 for each of the following compounds.
1. C[C@@H]1C[C@H](C)CN(C(=O)c2noc(-c3cc(F)c(F)c(O)c3F)n2)C1
2. N#Cc1ccc(N2CCN(C(=O)c3noc(-c4cc(F)c(F)c(O)c4F)n3)CC2)cc1
3. CC(C)c1noc(C2=CCN(C(=O)c3noc(-c4cc(F)c(F)c(O)c4F)n3)CC2)n1

1. 30.5
2. 14.4
3. 10.5

* * *

# testedTarget: recombinant 17bHSD13 (N2-K300) (Homo sapiens (Human), UniProt Q7Z5P4)
# Sequence (Q7Z5P4 2-300): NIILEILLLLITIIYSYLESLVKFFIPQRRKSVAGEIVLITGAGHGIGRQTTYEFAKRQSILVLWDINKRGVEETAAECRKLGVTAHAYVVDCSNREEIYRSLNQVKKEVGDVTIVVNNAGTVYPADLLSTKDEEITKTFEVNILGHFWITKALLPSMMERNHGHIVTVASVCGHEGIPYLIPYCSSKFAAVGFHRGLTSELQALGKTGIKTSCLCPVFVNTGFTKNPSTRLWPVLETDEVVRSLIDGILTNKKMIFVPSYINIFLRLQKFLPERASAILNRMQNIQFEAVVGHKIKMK
# experimentalProtocol: In Vitro 17bHSD13 Enzyme Assay
# cond: 80 nM 17bHSD13, 0.5 mM NAD, 20 μM Estradiol, 2.5 h; estradiol to estrone by LC-MS/MS
Assign IC50 to each entry below.
Give bare numbers, in nM.

| compound | resultUnit | IC50 |
| --- | --- | --- |
| N#Cc1cccc2c1CCN(C(=O)c1noc(-c3c(F)c(O)c(F)c(F)c3I)n1)C2 [Example 109] | nM | 46 |
| C[C@@H]1CN(C(=O)c2noc(-c3c(F)c(O)c(F)c(F)c3I)n2)C[C@H](C)O1 [Example 108] | nM | 80 |
| O=C(NCc1ccnn1C1CCCCC1)c1cnc(-c2ccc(F)c(O)c2)o1 [Example 100] | nM | 5340 |
| C[C@@H]1C[C@H](C)CN(C(=O)c2noc(-c3cc(F)c(F)c(O)c3F)n2)C1 [Example 37] | nM | 57 |

Return reported IC50 values for all items listed beneath this line.
1. CC(C)(C)N(Cc1ccccn1)C(=O)c1noc(-c2cc(F)c(F)c(O)c2F)c1C#N [Example 19]
2. O=C(c1ccc(-c2cc(F)c(F)c(O)c2F)s1)N1CC[C@H](c2ccccc2)C1 [Example 33]
3. CCCC1CCN(C(=O)c2noc(-c3cc(F)c(F)c(O)c3F)n2)C1 (centres unmarked) [Example 76]
4. N#Cc1c(C(=O)N2CC(C(F)(F)F)C2)noc1-c1cc(F)c(F)c(O)c1F [Example 28]

1: 108; 2: 34; 3: 128; 4: 368

* * *

For each of the molecules below, state its Assay A: Human Heps Met Clint GMean CLint (μl/min/1E6).
# System: human hepatocytes
# experimentalProtocol: Assay A: Metabolic Stability in Human Hepatocytes
# Format: in vitro ADME
# cond: cryopreserved human hepatocytes, 10^6 viable cells/mL, 1 μM compound, 37° C.
Please answer using a numeric value trailed by its unit.

These solved cases illustrate the format of a correct answer.
| molecule | result |
| --- | --- |
| N#Cc1c(C(=O)N2Cc3ccc(F)cc3C2)noc1-c1cc(F)c(F)c(O)c1F | 17.2 μl/min/1E6 |
| N#Cc1ccc2c(c1)CN(C(=O)c1noc(-c3cc(F)c(F)c(O)c3F)n1)CC2 | 12.3 μl/min/1E6 |
| C[C@@H]1CN(C(=O)c2noc(-c3c(F)c(O)c(F)c(F)c3I)n2)C[C@H](C)O1 | 8.8 μl/min/1E6 |
| O=C(c1noc(-c2cc(F)c(F)c(O)c2F)n1)N1CCC(Oc2cccnc2)CC1 | 12.4 μl/min/1E6 |
| O=C(c1noc(-c2cc(F)c(F)c(O)c2F)n1)N1CC2CC2(c2ccccc2)C1 (centres unmarked) | 13.4 μl/min/1E6 |

For every item in the list below, what is its measured Assay A: Human Heps Met Clint GMean CLint (μl/min/1E6)?
1. C[C@@H]1CN(C(=O)c2noc(-c3cc(F)c(F)c(O)c3F)n2)C[C@H](C)N1
2. N#Cc1ccc2c(c1)CN(C(=O)c1noc(-c3cc(F)c(F)c(O)c3F)c1C#N)CC2
3. N#Cc1c(C(=O)N2CCN(c3ccc4nnc(C(F)(F)F)n4n3)CC2)noc1-c1cc(F)c(F)c(O)c1F
4. N#CC1(c2ccccc2)CCN(C(=O)c2noc(-c3cc(F)c(F)c(O)c3F)n2)CC1
5. COc1ccc(C(C)N(C)C(=O)c2noc(-c3cc(F)c(F)c(O)c3F)n2)cc1 (centres unmarked)
6. N#Cc1cccc2c1CCN(C(=O)c1noc(-c3c(F)c(O)c(F)c(F)c3Br)n1)C2
7. N#Cc1ccc(C2CCN(C(=O)c3noc(-c4cc(F)c(F)c(O)c4F)n3)CC2)cc1
8. N#Cc1ccc2c(c1)CN(C(=O)c1noc(-c3cc(F)c(F)c(O)c3F)n1)C2

1. 1.0 μl/min/1E6
2. 16.9 μl/min/1E6
3. 6.5 μl/min/1E6
4. 9.8 μl/min/1E6
5. 28.2 μl/min/1E6
6. 15.6 μl/min/1E6
7. 5.9 μl/min/1E6
8. 16.1 μl/min/1E6

Please give Assay A: Human Heps Met Clint GMean CLint (μl/min/1E6) for each item listed below.
1. C[C@@H]1CN(C(=O)c2cnc(-c3cc(F)c(F)c(O)c3F)s2)C[C@H](C)O1
2. CC[C@H]1CN(C(=O)c2noc(-c3cc(F)c(F)c(O)c3F)n2)C[C@@H](C)O1 (racemic)

13.3 μl/min/1E6
6.8 μl/min/1E6

Could you tell me Assay A: Human Heps Met Clint GMean CLint (μl/min/1E6) for each of these molecules? They are listed below.
1. C[C@@H]1CN(C(=O)c2noc(-c3cc(F)c(F)c(O)c3F)n2)C[C@H](C)O1
2. N#Cc1ccc(C2CN(C(=O)c3noc(-c4cc(F)c(F)c(O)c4F)n3)C2)cc1
3. O=C(c1noc(-c2cc(F)c(F)c(O)c2F)n1)N1CCC(Oc2ccc(F)cc2)C1 (centres unmarked)
4. COc1cccc(N2CCN(C(=O)c3noc(-c4cc(F)c(F)c(O)c4F)c3C#N)CC2)c1

1. 2.7 μl/min/1E6
2. 10.2 μl/min/1E6
3. 10.1 μl/min/1E6
4. 56.8 μl/min/1E6

Answer for every listed entry: what is its Assay A: Human Heps Met Clint GMean CLint (μl/min/1E6)? The entries follow.
1. O=C(c1noc(-c2cc(F)c(F)c(O)c2F)n1)N1CC(c2ccccc2)C1
2. O=C(c1noc(-c2cc(F)c(F)c(O)c2F)n1)N1CCCC(OCc2ccccc2)C1 (centres unmarked)
3. O=C(c1noc(-c2cc(F)c(F)c(O)c2F)n1)N1CCO[C@@H]2CCC[C@@H]21
4. CC1CN(C(=O)c2noc(-c3cc(F)c(F)c(O)c3F)n2)CC2(CCC2)O1 (racemic)

["13.8 μl/min/1E6", "17.3 μl/min/1E6", "7.3 μl/min/1E6", "8.3 μl/min/1E6"]
